System: Wolbachia pipientis
Experiment: Anti-Wolbachia Cell-Based Screen
Type: functional
Design: scale not given: in the data most compounds retested in dose-response had high values
Details: 5 µM
Screen size: about 48,000 compounds; about 13,000 (27%) showed an effect of 50% or more. The list shows a part of the results.
Threshold -10%. Percent Effect below it: Satisfied. Percent Effect at it or above: Not satisfied.

Molecule | Classification
Cc1cc(NC(=O)N2CCN(C)CC2C)n(CCC#N)n1 (configuration not stated) | Satisfied
CCOCCN1CCN(CC(=O)NC2(C#N)CCCC2)CC1CC (configuration not stated) | Satisfied
CCOCC(=O)Nc1ncc(I)cc1C | Not satisfied
Cc1nccc(CNC(=O)NCCOc2ccc(F)c(F)c2)n1 | Satisfied
Cc1cccc(OC2CCN(c3ncc(C#N)cc3Cl)CC2)n1 | Satisfied

query: Find out if reported Percent Effect for Cc1cc(=O)n2nc(Oc3ccc(C#N)cc3Cl)sc2n1 is less than -10%
result: Not satisfied

query: Threshold test, Percent Effect < -10%: CN(Cc1ccncc1)C1CCC[C@@H]2CN(c3ncccn3)C[C@H]12 (some centres not stated)
result: Not satisfied

query: Lab note: Percent Effect threshold -10%. Does this molecule come in strictly under it? CCOCCN1CCN(CC(=O)N2CCC2)CC1CC (configuration not stated)
result: Not satisfied

Taken from ChEMBL document CHEMBL3988442.
